procedure-details: Half-life in rat plasma when administered perorally at a dose of 10 mg/kg
Type: ADME, organism-based
Set-up: dose 10 mg/kg, route oral
experimental-context: po
assay-endpoint: half-life (h)
Report the figure in h without appending any unit label.

Incoming: Name the reported half-life value associated with the compound `N[C@](CC1c2ccccc2Oc2ccccc21)(C(=O)O)[C@H]1C[C@@H]1C(=O)O`
Outgoing: 2.64

* * *

procedure-details: Plasma concentration after 6 hr at a dose of 100 mg/kg when administered perorally
experimental-context: po
assay-endpoint: concentration at 6 h (ng/mL)
Report the figure in ng/mL without appending any unit label.

Incoming: Name the reported concentration at 6 h value associated with the compound `N[C@](CC1c2ccccc2Oc2ccccc21)(C(=O)O)[C@H]1C[C@@H]1C(=O)O`
Outgoing: 102
